- Test target: butyrylcholinesterase (BChE) (Homo sapiens, UniProt P06276)
- Method description: biochemical
- Test conditions: mean ± SD, three independent experiments
Property measured: IC50 (µM)
One number for each entry, in µM.

COc1cc2oc(-c3ccc(F)cc3)c(OC3OC(COC(C)=O)C(OC(C)=O)C(OC(C)=O)C3OC(C)=O)c(=O)c2cc1I (stereo not shown) [Compound 2n] ... 34.2
CC(=O)OCC1OC(Oc2c(-c3ccc(Cl)cc3)oc3cc(Cl)c(I)cc3c2=O)C(OC(C)=O)C(OC(C)=O)C1OC(C)=O (stereo not shown) [Compound 2g] ... 7.15
CC(=O)OC[C@H]1O[C@@H](Oc2c(-c3ccccc3)oc3cc(Br)c(I)cc3c2=O)[C@H](OC(C)=O)[C@@H](OC(C)=O)[C@@H]1OC(C)=O [Compound 2i] ... 9.79
CC(=O)OCC1OC(Oc2c(-c3ccc(Cl)cc3)oc3cc(Br)c(I)cc3c2=O)C(OC(C)=O)C(OC(C)=O)C1OC(C)=O (stereo not shown) [Compound 2k] ... 30
COc1cc2oc(-c3ccccc3)c(O[C@@H]3O[C@H](COC(C)=O)[C@@H](OC(C)=O)[C@H](OC(C)=O)[C@H]3OC(C)=O)c(=O)c2cc1I [Compound 2m] ... 29.8
COc1ccc(-c2oc3cc(OC)c(I)cc3c(=O)c2OC2OC(COC(C)=O)C(OC(C)=O)C(OC(C)=O)C2OC(C)=O)cc1 (stereo not shown) [Compound 2p] ... 5.21

Measured IC50 of CC(=O)OC[C@H]1O[C@@H](Oc2c(-c3ccc(Cl)cc3)oc3cc(F)c(I)cc3c2=O)[C@H](OC(C)=O)[C@@H](OC(C)=O)[C@@H]1OC(C)=O [Compound 2c] : 30.8

---

Provide the reported IC50 of each item.
- Test target: β-secretase (BACE-1) (Homo sapiens, UniProt P56817)
- Construct: purchased Pan Vera; host or cells: baculovirus expression system
- Sequence (P56817 46-501): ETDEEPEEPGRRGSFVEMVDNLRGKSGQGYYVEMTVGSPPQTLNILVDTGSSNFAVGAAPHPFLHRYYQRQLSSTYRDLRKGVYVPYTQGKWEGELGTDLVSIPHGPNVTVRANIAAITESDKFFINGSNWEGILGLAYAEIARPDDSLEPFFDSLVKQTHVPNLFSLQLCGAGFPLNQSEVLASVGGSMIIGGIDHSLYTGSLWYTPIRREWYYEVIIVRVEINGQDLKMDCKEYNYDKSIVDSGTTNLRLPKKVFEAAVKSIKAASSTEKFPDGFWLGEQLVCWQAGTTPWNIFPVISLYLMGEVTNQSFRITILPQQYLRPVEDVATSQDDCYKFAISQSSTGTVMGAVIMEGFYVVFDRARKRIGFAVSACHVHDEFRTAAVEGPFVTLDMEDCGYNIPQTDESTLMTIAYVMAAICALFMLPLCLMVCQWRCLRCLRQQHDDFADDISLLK
- Method description: In vitro β-secretase inhibitory FRET assay
- Type: biochemical
- Test conditions: 60 min incubation, read-out: IC50 (µM) against β-secretase activity
Provide the measurement as a number trailed by its unit.

COc1ccc(-c2oc3cc(Br)c(I)cc3c(=O)c2OC2OC(COC(C)=O)C(OC(C)=O)C(OC(C)=O)C2OC(C)=O)cc1 (centres unmarked) ... 18.3 µM

Next:
Measured IC50 of COc1ccc(-c2oc3cc(OC)c(I)cc3c(=O)c2OC2OC(COC(C)=O)C(OC(C)=O)C(OC(C)=O)C2OC(C)=O)cc1 (centres unmarked) : 25.2 µM

---

Assay read-out Ki; system under study: UniProt:P22303.
One number for each entry, in µM.

COc1ccc(-c2oc3cc(Br)c(I)cc3c(=O)c2OC2OC(COC(C)=O)C(OC(C)=O)C(OC(C)=O)C2OC(C)=O)cc1 (centres unmarked) ... 1.38

Measured Ki of COc1ccc(-c2oc3cc(OC)c(I)cc3c(=O)c2OC2OC(COC(C)=O)C(OC(C)=O)C(OC(C)=O)C2OC(C)=O)cc1 (centres unmarked) : 2.36

---

- Test target: BChE (Homo sapiens, UniProt P06276)
- Sequence (P06276 29-602): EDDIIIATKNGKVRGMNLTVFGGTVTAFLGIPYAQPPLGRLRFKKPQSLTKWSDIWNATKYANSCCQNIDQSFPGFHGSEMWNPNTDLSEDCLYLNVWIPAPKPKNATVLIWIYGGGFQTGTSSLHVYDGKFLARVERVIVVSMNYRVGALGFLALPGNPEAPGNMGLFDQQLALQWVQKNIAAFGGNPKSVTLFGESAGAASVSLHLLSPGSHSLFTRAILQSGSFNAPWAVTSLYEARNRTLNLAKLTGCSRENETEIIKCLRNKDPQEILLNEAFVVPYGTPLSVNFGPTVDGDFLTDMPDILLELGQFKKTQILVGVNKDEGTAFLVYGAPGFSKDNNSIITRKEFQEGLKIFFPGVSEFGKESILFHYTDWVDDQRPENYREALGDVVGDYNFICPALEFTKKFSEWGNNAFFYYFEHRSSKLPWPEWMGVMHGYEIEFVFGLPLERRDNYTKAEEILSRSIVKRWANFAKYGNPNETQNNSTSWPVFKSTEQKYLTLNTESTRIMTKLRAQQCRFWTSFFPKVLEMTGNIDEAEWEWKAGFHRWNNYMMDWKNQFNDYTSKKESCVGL
Property measured: pKi
Give bare numbers, as −log10 of the molar value.

COc1ccc(-c2oc3cc(OC)c(I)cc3c(=O)c2OC2OC(COC(C)=O)C(OC(C)=O)C(OC(C)=O)C2OC(C)=O)cc1 (centres unmarked) [Compound 2p] ... 5.79

Next:
Measured pKi of COc1ccc(-c2oc3cc(Br)c(I)cc3c(=O)c2OC2OC(COC(C)=O)C(OC(C)=O)C(OC(C)=O)C2OC(C)=O)cc1 (centres unmarked) [Compound 2l] : 5.82

---

Provide the reported IC50 of each item.
- Test target: butyrylcholinesterase (BChE) (Homo sapiens, UniProt P06276)
- Method description: biochemical
- Test conditions: mean ± SD, three independent experiments
Give bare numbers, in µM.

Some compounds with known IC50 results, for comparison:
COc1ccc(-c2oc3cc(Br)c(I)cc3c(=O)c2OC2OC(COC(C)=O)C(OC(C)=O)C(OC(C)=O)C2OC(C)=O)cc1 (stereo not drawn) [Compound 2l] ... 7.24
CC(=O)OC[C@H]1O[C@@H](Oc2c(-c3ccc(F)cc3)oc3cc(F)c(I)cc3c2=O)[C@H](OC(C)=O)[C@@H](OC(C)=O)[C@@H]1OC(C)=O [Compound 2b] ... 21.9

Measured IC50 of CC(=O)OC[C@H]1O[C@@H](Oc2c(-c3ccccc3)oc3cc(F)c(I)cc3c2=O)[C@H](OC(C)=O)[C@@H](OC(C)=O)[C@@H]1OC(C)=O [Compound 2a] : 26.2

---

- Test target: acetylcholinesterase (AChE) (Homo sapiens)
- Sequence (P22303 32-614): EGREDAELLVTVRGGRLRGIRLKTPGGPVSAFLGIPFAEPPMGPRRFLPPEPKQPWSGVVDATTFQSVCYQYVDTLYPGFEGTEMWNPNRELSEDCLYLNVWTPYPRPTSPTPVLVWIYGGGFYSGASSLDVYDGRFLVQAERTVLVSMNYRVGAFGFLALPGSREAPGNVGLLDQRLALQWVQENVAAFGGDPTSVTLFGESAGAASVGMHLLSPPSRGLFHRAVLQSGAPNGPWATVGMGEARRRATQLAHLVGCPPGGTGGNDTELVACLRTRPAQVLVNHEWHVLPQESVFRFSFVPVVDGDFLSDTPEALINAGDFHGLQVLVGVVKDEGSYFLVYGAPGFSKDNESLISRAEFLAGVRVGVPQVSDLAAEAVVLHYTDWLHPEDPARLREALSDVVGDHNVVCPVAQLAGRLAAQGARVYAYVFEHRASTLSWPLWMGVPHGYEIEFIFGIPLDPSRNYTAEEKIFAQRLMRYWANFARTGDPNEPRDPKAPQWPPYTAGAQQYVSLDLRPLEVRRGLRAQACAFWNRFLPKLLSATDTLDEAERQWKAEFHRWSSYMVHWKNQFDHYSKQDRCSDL
- Method description: biochemical
- Type: biochemical
- Test conditions: mean ± SD, three independent experiments
Property measured: log10(IC50) (log10 of the value in µM)
Values below are the log10 of the recorded IC50, with µM as the unit.

COc1ccc(-c2oc3cc(F)c(I)cc3c(=O)c2O[C@@H]2O[C@H](COC(C)=O)[C@@H](OC(C)=O)[C@H](OC(C)=O)[C@H]2OC(C)=O)cc1 ... 1.78
CC(=O)OCC1OC(Oc2c(-c3ccccc3)oc3cc(Cl)c(I)cc3c2=O)C(OC(C)=O)C(OC(C)=O)C1OC(C)=O (stereo not drawn) ... 1.54
CC(=O)OC[C@H]1O[C@@H](Oc2c(-c3ccccc3)oc3cc(Br)c(I)cc3c2=O)[C@H](OC(C)=O)[C@@H](OC(C)=O)[C@@H]1OC(C)=O ... 1.85
COc1ccc(-c2oc3cc(Cl)c(I)cc3c(=O)c2O[C@@H]2O[C@H](COC(C)=O)[C@@H](OC(C)=O)[C@H](OC(C)=O)[C@H]2OC(C)=O)cc1 ... 1.41

Need log10(IC50) for each of these molecules.
1. COc1cc2oc(-c3ccccc3)c(O[C@@H]3O[C@H](COC(C)=O)[C@@H](OC(C)=O)[C@H](OC(C)=O)[C@H]3OC(C)=O)c(=O)c2cc1I
2. CC(=O)OC[C@H]1O[C@@H](Oc2c(-c3ccc(Cl)cc3)oc3cc(F)c(I)cc3c2=O)[C@H](OC(C)=O)[C@@H](OC(C)=O)[C@@H]1OC(C)=O
3. COc1cc2oc(-c3ccc(Cl)cc3)c(O[C@@H]3O[C@H](COC(C)=O)[C@@H](OC(C)=O)[C@H](OC(C)=O)[C@H]3OC(C)=O)c(=O)c2cc1I
4. CC(=O)OCC1OC(Oc2c(-c3ccc(Cl)cc3)oc3cc(Cl)c(I)cc3c2=O)C(OC(C)=O)C(OC(C)=O)C1OC(C)=O (stereo not drawn)
5. CC(=O)OCC1OC(Oc2c(-c3ccc(Cl)cc3)oc3cc(Br)c(I)cc3c2=O)C(OC(C)=O)C(OC(C)=O)C1OC(C)=O (stereo not drawn)
6. COc1ccc(-c2oc3cc(Br)c(I)cc3c(=O)c2OC2OC(COC(C)=O)C(OC(C)=O)C(OC(C)=O)C2OC(C)=O)cc1 (stereo not drawn)

Result string:
1: 1.75; 2: 1.39; 3: 1.45; 4: 1.50; 5: 0.71; 6: 0.70

Need log10(IC50) for each of these molecules.
1. CC(=O)OC[C@H]1O[C@@H](Oc2c(-c3ccc(F)cc3)oc3cc(Cl)c(I)cc3c2=O)[C@H](OC(C)=O)[C@@H](OC(C)=O)[C@@H]1OC(C)=O
2. CC(=O)OC[C@H]1O[C@@H](Oc2c(-c3ccc(F)cc3)oc3cc(Br)c(I)cc3c2=O)[C@H](OC(C)=O)[C@@H](OC(C)=O)[C@@H]1OC(C)=O
3. COc1ccc(-c2oc3cc(OC)c(I)cc3c(=O)c2OC2OC(COC(C)=O)C(OC(C)=O)C(OC(C)=O)C2OC(C)=O)cc1 (stereo not drawn)
4. CC(=O)OC[C@H]1O[C@@H](Oc2c(-c3ccc(F)cc3)oc3cc(F)c(I)cc3c2=O)[C@H](OC(C)=O)[C@@H](OC(C)=O)[C@@H]1OC(C)=O

Result string:
[1.85, 1.49, 0.96, 1.45]

Measured log10(IC50) of CC(=O)OC[C@H]1O[C@@H](Oc2c(-c3ccccc3)oc3cc(F)c(I)cc3c2=O)[C@H](OC(C)=O)[C@@H](OC(C)=O)[C@@H]1OC(C)=O : 1.27

---

Provide the reported Ki of each item.
- Test target: UniProtKB P56817
Numbers only, in nM.

COc1ccc(-c2oc3cc(OC)c(I)cc3c(=O)c2OC2OC(COC(C)=O)C(OC(C)=O)C(OC(C)=O)C2OC(C)=O)cc1 (centres unmarked) [Compound 2p] ... 2940

Next:
Measured Ki of COc1ccc(-c2oc3cc(Br)c(I)cc3c(=O)c2OC2OC(COC(C)=O)C(OC(C)=O)C(OC(C)=O)C2OC(C)=O)cc1 (centres unmarked) [Compound 2l] : 2420

Ref: paper PMC6804162
